Experimental system: HLA-B*45:06
Assay explanation: IEDB peptide-MHC binding, purified MHC/competitive/fluorescence; filed as Kd, often an IC50 or EC50 that approximates it; bounds were set here for any values at or beyond the usual limits of such assays
Test parameters: source organism: Clostridium novyi NT
pKd: −log10 of the molar value.
Property label: pKd

Fill in: pKd of ASMDNTSPM is ___
≤ 5.30

====

Experimental system: HLA-A*11:01
Assay explanation: IEDB peptide-MHC binding, purified MHC/competitive/radioactivity; filed as Kd, often an IC50 or EC50 that approximates it; bounds were set here for any values at or beyond the usual limits of such assays
Test parameters: source organism: Vaccinia virus WR
Property label: Kd (nM)
Answers are plain numbers, in nM.

Example results:
{"Primary sequence": "CFPSTQRDY", "Unit label": "nM", "Kd": 2510}
{"Primary sequence": "YSFKLILAEY", "Unit label": "nM", "Kd": 7290}
{"Primary sequence": "ISSVQLSNNK", "Unit label": "nM", "Kd": 121}
{"Primary sequence": "AAGIIILMEY", "Unit label": "nM", "Kd": 1340}

Report Kd for each item below.
1. AIEPSGNNY
2. ISLNSMYTR
3. FISDNKKEYK

1: 5790; 2: 37.4; 3: 47.5

Report Kd for each item below.
1. YVGIKLGDK
2. YSKKFQESFY
3. SARNKLFKR
4. NSINNQLMY
5. AARILSEKR
6. GVEDTESIER

1: 650; 2: 7410; 3: 5710; 4: 132; 5: 6080; 6: 948

Report Kd for each item below.
1. VLSAATETY
2. GTIAGGVCY
3. TFVNFNSVK
4. STELIRRVR
5. KALMQLTTK
6. GQRCHFIKK

[6460, 69.7, 21.4, 127, 87.9, 13.4]

Under HLA-A*11:01: Kd value of DLDKVYEILK ?
751

====

Experimental system: HLA-A*26:01
Assay explanation: IEDB peptide-MHC binding, purified MHC/direct/fluorescence; filed as Kd, often an IC50 or EC50 that approximates it; bounds were set here for any values at or beyond the usual limits of such assays
Test parameters: source organism: Camelpox virus M-96
Property label: Kd

Fill in: Kd of VMCIQMKYV is ___
≥ 20 µM

====

Experimental system: HLA-B*18:01
Assay explanation: IEDB peptide-MHC binding, purified MHC/competitive/fluorescence; filed as Kd, often an IC50 or EC50 that approximates it; bounds were set here for any values at or beyond the usual limits of such assays
Test parameters: source organism: Escherichia coli
Property label: Kd

Under HLA-B*18:01: Kd value of MFWKLPPWL ?
≥ 20 µM

====

Experimental system: HLA-C*14:02
Assay explanation: IEDB peptide-MHC binding, purified MHC/competitive/fluorescence; filed as Kd, often an IC50 or EC50 that approximates it; bounds were set here for any values at or beyond the usual limits of such assays
Test parameters: source organism: dengue virus type 4
Property label: Kd (nM)
Give bare numbers, in nM.

Fill in: Kd of STMPLVMAW is ___
10.6

====

Experimental system: HLA-A*02:01
Assay explanation: IEDB peptide-MHC binding, purified MHC/direct/fluorescence; filed as Kd, often an IC50 or EC50 that approximates it; bounds were set here for any values at or beyond the usual limits of such assays
Test parameters: source organism: Shigella flexneri
pKd: −log10 of the molar value.
Property label: pKd

Fill in: pKd of DRLHPPNKL is ___
≤ 4.70

====

Experimental system: HLA-B*39:01
Assay explanation: IEDB peptide-MHC binding, purified MHC/competitive/fluorescence; filed as Kd, often an IC50 or EC50 that approximates it; bounds were set here for any values at or beyond the usual limits of such assays
Test parameters: source organism: Giardia lamblia ATCC 50803
Property label: Kd (nM)
One number for each entry, in nM.

Under HLA-B*39:01: Kd value of LPVFATIGL ?
90.2

====

Experimental system: HLA-A*03:01
Assay explanation: IEDB peptide-MHC binding, purified MHC/competitive/radioactivity; filed as Kd, often an IC50 or EC50 that approximates it; bounds were set here for any values at or beyond the usual limits of such assays
Test parameters: source organism: Mammarenavirus machupoense
Property label: pKd
Give bare numbers, as −log10 of the molar value.

Fill in: pKd of SSFDYCGVNH is ___
5.09

====

Experimental system: HLA-B*15:17
Assay explanation: IEDB peptide-MHC binding, purified MHC/direct/fluorescence; filed as Kd, often an IC50 or EC50 that approximates it; bounds were set here for any values at or beyond the usual limits of such assays
Test parameters: source organism: Marburg virus - Musoke, Kenya, 1980
pKd: −log10 of the molar value.
Property label: pKd

Fill in: pKd of AEALLADGL is ___
≤ 4.70

====

Experimental system: HLA-A*69:01
Assay explanation: IEDB peptide-MHC binding, purified MHC/direct/fluorescence; filed as Kd, often an IC50 or EC50 that approximates it; bounds were set here for any values at or beyond the usual limits of such assays
Test parameters: source organism: Burkholderia mallei
Property label: Kd

Fill in: Kd of KLYPNVDFY is ___
≥ 20 µM

====

Please respond with reported IC50 for every item in the list.
Experimental system: HLA-A*03:01
Assay explanation: IEDB peptide-MHC binding, purified MHC/competitive/fluorescence; bounds were set here for any values at or beyond the usual limits of such assays
Test parameters: source organism: Sudan ebolavirus
Give bare numbers, in nM.

{"Primary sequence": "QLPRDKFRK", "IC50 / nM": 3380}

Pending sequence:
Fill in: IC50 of VIAFLILAK is ___
1690

====

Experimental system: HLA-A*24:02
Assay explanation: IEDB peptide-MHC binding, purified MHC/competitive/radioactivity; filed as Kd, often an IC50 or EC50 that approximates it; bounds were set here for any values at or beyond the usual limits of such assays
Test parameters: source organism: SARS coronavirus Tor2
pKd: −log10 of the molar value.
Please respond with reported pKd for every item in the list.

{"Primary sequence": "VFFGYFASHF", "Experimental system": "HLA-A*24:02", "pKd": 8.33}
{"Primary sequence": "SMMGFKMNY", "Experimental system": "HLA-A*24:02", "pKd": 5.03}
{"Primary sequence": "EIDETCEHEY", "Experimental system": "HLA-A*24:02", "pKd": "≤ 4.15"}

Report pKd for each item below.
1. LFVTIYSHL
2. KFLTNKLLL

[6.88, 5.96]

Report pKd for each item below.
1. NYTQHTSSM
2. LTNSVIIMAY

["≤ 4.04", "≤ 4.15"]

Report pKd for each item below.
1. FNATKFPSVY
2. GSVGFNIDY
3. NTNPIQLSSY
4. TLDESFLGRY

1: ≤ 4.15; 2: ≤ 4.11; 3: ≤ 4.15; 4: ≤ 4.15

Report pKd for each item below.
1. FYGGWHNML
2. MADQAMTQMY

1. ≤ 4.55
2. ≤ 4.15

====

Experimental system: HLA-B*58:01
Assay explanation: IEDB peptide-MHC binding, purified MHC/direct/fluorescence; filed as Kd, often an IC50 or EC50 that approximates it; bounds were set here for any values at or beyond the usual limits of such assays
Test parameters: source organism: Mammarenavirus lassaense
Property label: Kd

Fill in: Kd of KHDEEFCDM is ___
≥ 20 µM

====

Experimental system: HLA-A*02:01
Assay explanation: IEDB peptide-MHC binding, purified MHC/direct/fluorescence; filed as Kd, often an IC50 or EC50 that approximates it; bounds were set here for any values at or beyond the usual limits of such assays
Test parameters: source organism: Homo sapiens
Property label: pKd
Give bare numbers, as −log10 of the molar value.

Fill in: pKd of YLGSWATGK is ___
4.80

====

Experimental system: HLA-B*07:02
Assay explanation: IEDB peptide-MHC binding, purified MHC/direct/fluorescence; filed as Kd, often an IC50 or EC50 that approximates it; bounds were set here for any values at or beyond the usual limits of such assays
Test parameters: source organism: Histophilus somni
pKd: −log10 of the molar value.
Property label: pKd

Fill in: pKd of QYPAFVLFI is ___
≤ 4.70

====

Experimental system: HLA-B*15:42
Assay explanation: IEDB peptide-MHC binding, purified MHC/competitive/fluorescence; filed as Kd, often an IC50 or EC50 that approximates it; bounds were set here for any values at or beyond the usual limits of such assays
Test parameters: source organism: dengue virus type 4
Property label: Kd

Fill in: Kd of STMPLVMAW is ___
≥ 5 µM

====

Experimental system: HLA-A*31:01
Assay explanation: IEDB peptide-MHC binding, purified MHC/competitive/fluorescence; filed as Kd, often an IC50 or EC50 that approximates it; bounds were set here for any values at or beyond the usual limits of such assays
Test parameters: source organism: Bacillus anthracis str. A0488
Property label: pKd
One number for each entry, as −log10 of the molar value.

Fill in: pKd of HFFESLYAR is ___
8.80
